Please respond with reported IC50 for every item in the list.
Tested on: A431 cells
Assay: Inhibition of A431 cell proliferation (CellTiter-Glo)
Assay type: cell-based
Conditions: Homo sapiens, A-431, 72 h, read-out: EGFR IC50 (nM) A431
Hi, when you answer, please include the unit after the number. Thanks!

See these solved cases before continuing.
compound smiles | IC50
C=CC(=O)Nc1cc(Nc2nccc(-n3ncc4c(OC)cccc43)n2)c(OC)cc1N(C)CCN1CCCC1 | 444 nM
C#CCn1cc(-c2ccnc(Nc3cc(NC(=O)C=C)c(N(C)CCNC)cc3OC)n2)c2ccccc21 | 690 nM
C=CC(=O)Nc1cc(Nc2nccc(-n3ncc4cc(OC)ccc43)n2)c(OC)cc1N(C)CCN1CCCC1 | 406 nM

Write down the reported IC50 of C=CC(=O)Nc1cc(Nc2nccc(-c3cn(C4CC4)c4ccccc34)n2)c(OC)cc1N(C)CCN1CCCC1 , test system: A431 cells.
527 nM

* * *

Please respond with reported Tmax for every item in the list.
Experiment: PK analysis in rats
Type: in vivo, Sprague Dawley (SD) rats
Conditions: Sprague-Dawley, rat, po, 5 mg/kg; SD rats, single intragastric administration, 5 mg/10 ml/kg, plasma
Numbers only, in min.

See these solved cases before continuing.
molecule | Tmax, min
C=CC(=O)Nc1cc(Nc2nccc(-c3cn(C)c4ccccc34)n2)c(OC)cc1N(C)CCN(C)C [AZD-9291, reference compound] | 120
C=CC(=O)Nc1cc(Nc2nccc(-c3cn(C4CC4)c4ccccc34)n2)c(OC)cc1N(C)CCN(C)C | 30

For the next question, use this molecule.
Entry C=CC(=O)Nc1cc(Nc2nccc(-c3cn(C4CC4)c4ccccc34)n2)c(OC)cc1N(C)CCNC [Metabolite of Example 26] has what Tmax?
30

* * *

Target: exon 20 T790M mutant-type EGFR enzyme (Homo sapiens, UniProt P00533, T790M)
Sequence (P00533 25-1210 T790M): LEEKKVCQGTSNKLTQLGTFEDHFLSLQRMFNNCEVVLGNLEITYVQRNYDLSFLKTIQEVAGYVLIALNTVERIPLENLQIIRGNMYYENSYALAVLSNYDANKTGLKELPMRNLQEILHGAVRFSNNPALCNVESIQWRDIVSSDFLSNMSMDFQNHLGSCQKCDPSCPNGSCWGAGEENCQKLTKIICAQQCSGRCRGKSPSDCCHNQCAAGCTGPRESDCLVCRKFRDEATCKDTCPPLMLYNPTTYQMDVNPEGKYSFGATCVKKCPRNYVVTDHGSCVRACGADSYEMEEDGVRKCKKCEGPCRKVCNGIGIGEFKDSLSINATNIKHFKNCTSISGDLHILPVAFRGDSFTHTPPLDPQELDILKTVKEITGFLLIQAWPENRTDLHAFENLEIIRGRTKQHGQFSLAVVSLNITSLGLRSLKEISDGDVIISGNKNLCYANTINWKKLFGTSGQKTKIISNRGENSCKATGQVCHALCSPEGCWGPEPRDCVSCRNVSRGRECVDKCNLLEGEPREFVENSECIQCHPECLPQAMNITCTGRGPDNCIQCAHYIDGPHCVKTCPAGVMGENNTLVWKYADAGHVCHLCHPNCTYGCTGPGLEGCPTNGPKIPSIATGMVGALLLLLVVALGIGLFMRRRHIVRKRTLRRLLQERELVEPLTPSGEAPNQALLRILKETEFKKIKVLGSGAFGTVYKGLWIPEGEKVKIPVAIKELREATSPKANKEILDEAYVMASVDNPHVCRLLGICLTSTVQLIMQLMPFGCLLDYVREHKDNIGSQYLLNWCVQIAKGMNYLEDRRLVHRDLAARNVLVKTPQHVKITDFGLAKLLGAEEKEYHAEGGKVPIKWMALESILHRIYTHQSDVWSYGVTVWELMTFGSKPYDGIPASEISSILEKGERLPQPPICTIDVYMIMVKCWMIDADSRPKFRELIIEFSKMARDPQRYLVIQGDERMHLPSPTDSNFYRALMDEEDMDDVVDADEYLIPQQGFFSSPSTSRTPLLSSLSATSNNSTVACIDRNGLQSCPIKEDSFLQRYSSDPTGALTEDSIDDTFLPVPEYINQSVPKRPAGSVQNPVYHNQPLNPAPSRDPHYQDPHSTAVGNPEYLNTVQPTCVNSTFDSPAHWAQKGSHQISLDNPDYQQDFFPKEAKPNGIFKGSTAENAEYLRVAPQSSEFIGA
Experiment: Enzymologic experiment of T790M mutant-type EGFR (TR-FRET)
Type: biochemical
Details: ratio WT IC50 / T790M IC50, enzyme
Procedure: 2) 1 to 5 μL of diluted solution in gradient of the compound was added. 3) The mixture was incubated for 10 minutes at room temperature. 6) 5 μL of EDTA stop solution was added to terminate the reaction for 5 minutes. 7) […] of a test solution containing the labeled antibody was added, and the mixture was incubated at room temperature for 1 hour. 9) The inhibition rates were calculated according to the fluorescence signal values. […]
assay endpoint: Selectivity of wild-type/mutant-type
Give bare numbers.

See these solved cases before continuing.
compound smiles | assay endpoint | value measured
C=CC(=O)Nc1cc(Nc2ncc(Cl)c(-n3cnc4cc(OC)ccc43)n2)c(OC)cc1N(C)CCN(C)C | Selectivity of wild-type/mutant-type | 41.53
C=CC(=O)Nc1cc(Nc2nccc(-c3cn(C)c4ccc(OC)cc34)n2)c(OC)cc1N(C)CCN(C)C | Selectivity of wild-type/mutant-type | 1.1
C=CC(=O)Nc1cc(Nc2nccc(-c3c[nH]c4c(C5CC5)cccc34)n2)c(OC)cc1N(C)CCN(C)C | Selectivity of wild-type/mutant-type | 2.5
C=CC(=O)Nc1cc(Nc2nccc(-c3c[nH]c4c(OC)cccc34)n2)c(OC)cc1N(C)CCN(C)C | Selectivity of wild-type/mutant-type | 1.771
C=CC(=O)Nc1cc(Nc2ncc(C(F)(F)F)c(-n3ncc4cc(C#N)ccc43)n2)c(OC)cc1N(C)CCN(C)C | Selectivity of wild-type/mutant-type | 107.1
C=CC(=O)Nc1cc(Nc2nccc(-n3ncc4ccccc43)n2)c(OC)cc1N(C)CCN(C)C | Selectivity of wild-type/mutant-type | 8.62
C=CC(=O)Nc1cc(Nc2nccc(-n3ncc4cc(OC)ccc43)n2)c(OC)cc1N(C)CCN1CCCC1 | Selectivity of wild-type/mutant-type | 6.13
C=CC(=O)Nc1cc(Nc2nccc(-n3ncc4ccc(C#N)cc43)n2)c(OC)cc1N(C)CCN(C)C | Selectivity of wild-type/mutant-type | 13.61
C=CC(=O)Nc1cc(Nc2ncc(Cl)c(-c3cn(C)c4cc(OC)ccc34)n2)c(OC)cc1N(C)CCN(C)C | Selectivity of wild-type/mutant-type | 5.00
C=CC(=O)Nc1cc(Nc2nccc(-n3ncc4cc(OCCOC)ccc43)n2)c(OC)cc1N(C)CCN(C)C | Selectivity of wild-type/mutant-type | 8.75

For every item in the list below, what is its measured Selectivity of wild-type/mutant-type?
1. C=CC(=O)Nc1cc(Nc2ncc(Cl)c(-n3nc(OC)c4cc(Cl)ccc43)n2)c(OC)cc1N(C)CCN(C)C
2. C=CC(=O)Nc1cc(Nc2nccc(-n3ncc4cc(OCCOC)ccc43)n2)c(OC)cc1N(C)CCN1CCCC1
3. C=CC(=O)Nc1cc(Nc2nccc(-n3ncc4c(OC)cccc43)n2)c(OC)cc1N(C)CCN(C)C
4. C=CC(=O)Nc1cc(Nc2ncc(Cl)c(-n3ncc4cc(OC)ccc43)n2)c(OC)cc1N(C)CCN(C)C
5. C=CC(=O)Nc1cc(Nc2nccc(-n3nc(C)c4ccc(OC)cc43)n2)c(OC)cc1N(C)CCN1CCCC1
6. C=CC(=O)Nc1cc(Nc2nccc(-c3cn(S(=O)(=O)N(C)C)c4ccccc34)n2)c(OC(F)F)cc1N(C)CCN(C)C
7. C=CC(=O)Nc1cc(Nc2nccc(-c3cn(S(=O)(=O)N(C)C)c4ccccc34)n2)c(OC)cc1N(C)CCN1CCCC1
8. C#CCn1cc(-c2ccnc(Nc3cc(NC(=O)C=C)c(N(C)CCNC)cc3OC)n2)c2ccccc21

[89.47, 10.75, 4.90, 10.5, 9.34, 1.33, 7.83, 13.58]

For every item in the list below, what is its measured Selectivity of wild-type/mutant-type?
1. C=CC(=O)Nc1cc(Nc2ncc(C(F)(F)F)c(-n3nc(C)c4cc(C#N)ccc43)n2)c(OC)cc1N(C)CCN(C)C
2. C=CC(=O)Nc1cc(Nc2nccc(-c3cn(C)c4cc(P(C)(C)=O)ccc34)n2)c(OC(F)F)cc1N(C)CCN(C)C
3. C=CC(=O)Nc1cc(Nc2nccc(-c3cn(C)c4c(C5CC5)cccc34)n2)c(OC)cc1N(C)CCN(C)C
4. C=CC(=O)Nc1cc(Nc2nccc(-c3cn(C)c4ccccc34)n2)c(OC(F)F)cc1N(C)CCN(C)C
5. C=CC(=O)Nc1cc(Nc2nccc(-n3nc(C)c4ccc(OC)cc43)n2)c(OC)cc1N(C)CCN(C)C
6. C=CC(=O)Nc1cc(Nc2nccc(-c3cn4c5c(cccc35)CCC4)n2)c(OC)cc1N(C)CCN(C)C
7. C=CC(=O)Nc1cc(Nc2nccc(-n3nc(OC)c4cc(Cl)ccc43)n2)c(OC)cc1N(C)CCN(C)C

[216.14, 23.39, 6.54, 13, 6.14, 9.15, 9.10]

* * *

Target: exon 20 T790M mutant-type EGFR enzyme (Homo sapiens, UniProt P00533, T790M)
Assay: Enzymologic experiment of T790M mutant-type EGFR (TR-FRET)
Assay type: biochemical
Conditions: T790M EGFR enzyme, TR-FRET, ATP 1 to 10 uM
Kindly apply the following: class 1 if IC50 is less than 0.9 nM, class 0 in every other case.

Criterion: IC50 strictly below 0.9 nM. Is it met by C=CC(=O)Nc1cc(Nc2nccc(-c3cn(C)c4ccccc34)n2)c(OC)cc1N1CC2(COC2)C1 ?
class 0

Criterion: IC50 strictly below 0.9 nM. Is it met by C=CCn1cc(-c2ccnc(Nc3cc(NC(=O)C=C)c(N(C)CCN(C)C)cc3OC)n2)c2ccccc21 ?
class 1

Criterion: IC50 strictly below 0.9 nM. Is it met by C=CC(=O)Nc1cc(Nc2nccc(-n3ncc4cc(OC)ccc43)n2)c(OC)cc1N(C)CCN1CCCC1 ?
class 0

Criterion: IC50 strictly below 0.9 nM. Is it met by C=CC(=O)Nc1cc(Nc2ncc(C(F)(F)F)c(-c3cn(S(=O)(=O)N(C)C)c4cc(OC)ccc34)n2)c(OC)cc1N(C)CCN(C)C ?
class 1

Criterion: IC50 strictly below 0.9 nM. Is it met by C=CC(=O)Nc1cc(Nc2nccc(-n3nc(C4CC4)c4ccccc43)n2)c(OC)cc1N(C)CCN(C)C [Example 44] ?
class 1

Criterion: IC50 strictly below 0.9 nM. Is it met by C=CC(=O)Nc1cc(Nc2nccc(-n3ncc4ccc(OC)cc43)n2)c(OC)cc1N(C)CCN(C)C ?
class 1

Criterion: IC50 strictly below 0.9 nM. Is it met by C=CC(=O)Nc1cc(Nc2nccc(-n3ncc4c(OC)cccc43)n2)c(OC)cc1N(C)CCN(C)C ?
class 1

Criterion: IC50 strictly below 0.9 nM. Is it met by C=CC(=O)Nc1cc(Nc2ncc(Cl)c(-n3nc(OC)c4cc(Cl)ccc43)n2)c(OC)cc1N(C)CCN(C)C ?
class 0

Criterion: IC50 strictly below 0.9 nM. Is it met by C=CC(=O)Nc1cc(Nc2nccc(-n3cnc4ccc(OC)cc43)n2)c(OC)cc1N(C)CCN1CCCC1 ?
class 0

Criterion: IC50 strictly below 0.9 nM. Is it met by C=CC(=O)Nc1cc(Nc2ncc(C(F)(F)F)c(-n3cnc4ccc(OC)cc43)n2)c(OC)cc1N(C)CCN(C)C ?
class 0

// provenance: patent US10428081B2
